Below, each entry is listed alongside its reported IC50.
Target: human truncated cGAS enzyme (147-522 human cGAS) (Homo sapiens (Human))
Test: Quantification of cGAS protein inhibition (cGAMP formation measured by LC-MS/MS)
Format: biochemical
Conditions: reported for the potential mixture in solution of co-existing tautomers and/or racemates
Form entry: enter the amount, then its unit.

COc1cc2c(-n3ccnc3)c(-c3nnc(C(C)N4CC5(COC5)C4)[nH]3)n(C)c2c(F)c1Cl (centres unmarked) | 268 nM

INPUT: Query (compound): "COc1cc2c(-n3ccnc3)c(-c3nnc(C(=O)N(C)C)[nH]3)n(C)c2c(C#N)c1Cl" ; field requested: IC50
OUTPUT: 171 nM

INPUT: Again, but for "Cn1c(-c2nnc(C(F)(F)F)[nH]2)c(-n2ccnc2)c2cc(Cl)c(Cl)cc21"
OUTPUT: 282 nM

INPUT: // next record COc1cc2c(-n3ccnc3)c(-c3nnc(C(C)N4CCOCC4)[nH]3)n(C)c2c(F)c1Cl (centres unmarked)
OUTPUT: 80 nM

INPUT: Next up: "CCOc1cc2c(-n3ccnc3)c(-c3nnc(C(C)=O)[nH]3)n(C)c2c(F)c1Cl"
OUTPUT: 721 nM

INPUT: "N#Cc1c(Cl)ccc2c(-n3ccnc3)c(-c3nnc(C(F)(F)F)[nH]3)[nH]c12" ?
OUTPUT: 226 nM

INPUT: Subsequent entry: "FC(F)(F)c1nnc(-c2[nH]c3c(Cl)c(Cl)ccc3c2-n2ccnc2)[nH]1"
OUTPUT: 95 nM

INPUT: Do the same for CN[C@@H](COC)c1nnc(-c2c(-n3ccnc3)c3cc(OC)c(Cl)c(F)c3n2C)[nH]1 [Example 125a] please
OUTPUT: 180 nM

* * *

Parameter IC50: see the listing below.
Biological target: human truncated cGAS enzyme (147-522 human cGAS) (Homo sapiens (Human), UniProt Q8N884)
Sequence (Q8N884 147-522): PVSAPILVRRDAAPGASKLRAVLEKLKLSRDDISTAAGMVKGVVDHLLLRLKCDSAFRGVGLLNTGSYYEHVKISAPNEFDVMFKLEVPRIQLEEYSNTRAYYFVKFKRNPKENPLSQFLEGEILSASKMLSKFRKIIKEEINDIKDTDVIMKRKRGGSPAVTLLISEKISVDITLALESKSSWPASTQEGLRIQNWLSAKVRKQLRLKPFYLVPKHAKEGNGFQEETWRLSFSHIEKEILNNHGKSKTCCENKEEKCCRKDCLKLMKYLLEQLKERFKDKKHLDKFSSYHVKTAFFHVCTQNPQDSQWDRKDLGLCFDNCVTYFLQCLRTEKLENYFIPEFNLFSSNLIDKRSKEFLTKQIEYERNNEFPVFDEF
Experiment: Quantification of cGAS protein inhibition (cGAMP formation measured by LC-MS/MS)
Type: biochemical
Details: reported for the potential mixture of co-existing tautomers and/or racemates
Give the quantity in nM, number only.

INPUT: Quick one: IC50 of "COc1cc2c(-c3cn[nH]c3)c(-c3nnc(F)[nH]3)n(C)c2c(F)c1Cl" ?
OUTPUT: 30

INPUT: Likewise for "COc1cc2c(-n3ccnc3)c(-c3nnc(F)[nH]3)[nH]c2c(F)c1Cl" ?
OUTPUT: 43

INPUT: Proceed to "FC(F)(F)Cc1nnc(-c2[nH]c3c(Cl)c(Cl)ccc3c2-c2cn[nH]c2)[nH]1"
OUTPUT: 178

INPUT: Would you kindly repeat that for "COc1cc2c(-c3cn[nH]c3)c(-c3nnc(C(F)(F)F)[nH]3)n(C)c2cc1Cl" ?
OUTPUT: 116

INPUT: Would you kindly repeat that for "Clc1ccc2c(-c3cn[nH]c3)c(-c3nnc[nH]3)[nH]c2c1Cl" ?
OUTPUT: 136

INPUT: Check "COCC(F)(F)c1nnc(-c2c(-c3cn[nH]c3)c3cc(OC)c(Cl)c(C#N)c3n2C)[nH]1" too.
OUTPUT: 30

INPUT: Queued: "COc1cc2c(-c3cn[nH]c3)c(-c3nnc(N4CCOCC4)[nH]3)n(C)c2c(F)c1Cl"
OUTPUT: 78

* * *

Target: human truncated cGAS enzyme (147-522 human cGAS) (Homo sapiens (Human), UniProt Q8N884)
Test: Quantification of cGAS protein inhibition (cGAMP formation measured by LC-MS/MS)
Assay type: biochemical
Details: reported for the potential mixture of co-existing tautomers and/or racemates
Description: A reagent buffer was prepared in filtered and autoclaved water according to the following: • 50 mM Tris-buffer pH 7.5 (1 M Tris-buffer pH 7.5, Invitrogen, Cat. No. 15567-027); • 50 mM NaCl (5 M NaCl, Sodium Chloride Solution, Sigma, 59222C-); • 5 mM MgCl2 (1 M MgCl2, Sigma, M1028); • 0.1 mM ZnCl2 (Zinc Chloride [7646-85-7], powder, Cell Culture Tested, Sigma, Z-0152); and • 0.001% Tween 20 (TWEEN 20, Sigma Aldrich, P1379-). […]
# IC50 per record follows
Please respond with the number in nM and leave the unit unwritten.

NC(=O)c1nnc(-c2[nH]c3c(Cl)c(Cl)ccc3c2-c2cn[nH]c2)[nH]1 | 30
CCOC(=O)c1nnc(-c2[nH]c3c(Cl)c(Cl)ccc3c2-c2cn[nH]c2)[nH]1 | 30
N#Cc1nnc(-c2[nH]c3c(Cl)c(Cl)ccc3c2-c2cn[nH]c2)[nH]1 | 77

INPUT: Item under review: COc1cc2c(-n3ccnc3)c(-c3nnc(C(O)C(F)F)[nH]3)n(C)c2c(F)c1Cl (centres unmarked) . Reported IC50?
OUTPUT: 30
